Hello, the source for this data is ChEMBL document CHEMBL1132836, in case you need it.

biological target: UniProt P28223
pKi: −log10 of the molar value.
Classify as follows. Reported pKi greater than or equal to 8: true (1). Reported pKi below: false (0).

Study these solved cases before continuing.
Asked: Answer whether pKi of CCN(C)CCc1c(-c2cccc([N+](=O)[O-])c2)[nH]c2ccccc12 is greater than or equal to 8.
Given back: true (1)

Asked: Try the molecule CCN(CC)CCc1c(-c2ccccc2)[nH]c2ccccc12
Given back: true (1)

Asked: Try the molecule CCN(C)CCc1c(-c2ccco2)[nH]c2ccccc12
Given back: false (0)

Asked: Try the molecule C[C@H]1CCCCN1CCc1c(-c2ccccc2)[nH]c2ccccc12
Given back: true (1)

---
Asked: Answer whether pKi of C[C@@H]1CCCCN1CCc1c(-c2ccccc2)[nH]c2ccccc12 is greater than or equal to 8.
Given back: true (1)
